Provenance of the data: patent US20120259413A1

# target.system: human recombinant EP4 receptor (HEK-293 cells) (Homo sapiens)
# Sequence (P35408 whole entry): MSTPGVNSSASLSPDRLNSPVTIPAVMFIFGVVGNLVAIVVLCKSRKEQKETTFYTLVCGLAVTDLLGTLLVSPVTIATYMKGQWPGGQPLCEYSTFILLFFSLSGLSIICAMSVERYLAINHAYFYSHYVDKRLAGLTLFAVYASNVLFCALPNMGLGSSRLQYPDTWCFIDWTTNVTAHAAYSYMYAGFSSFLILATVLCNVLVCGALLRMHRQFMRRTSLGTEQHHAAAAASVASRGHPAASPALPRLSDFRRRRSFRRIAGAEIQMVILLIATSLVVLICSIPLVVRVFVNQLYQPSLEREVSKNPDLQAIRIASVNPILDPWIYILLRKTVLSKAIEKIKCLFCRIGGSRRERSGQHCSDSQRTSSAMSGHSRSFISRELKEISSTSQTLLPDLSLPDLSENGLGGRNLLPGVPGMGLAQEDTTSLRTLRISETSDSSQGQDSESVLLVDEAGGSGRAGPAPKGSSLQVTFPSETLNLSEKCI
# procedure.details: AlphaScreen cAMP assay, EP4 receptor
# run.parameters: read-out: EC50 for increased cAMP production

[
  {
    "compound": "CC1(C)C(=O)[C@H](C/C=C\\CCCC(=O)O)[C@@H](/C=C/[C@H](O)CCc2sc3ccccc3c2Cl)[C@@H]1O [Compound I]",
    "target.system": "human recombinant EP4 receptor (HEK-293 cells) (Homo sapiens)",
    "EC50 [nM]": 0.25
  }
]

* * *

# target.system: hEP4/Gqs (Homo sapiens, UniProt P35408)
# procedure.details: FLIPR Ca2+ signal assay, hEP4/Gqs
# Method: cAMP assay was carried out using AlphaScreen cAMP assay kits (PerkinElmer, Boston, Mass.) following manufacturer instructions. Intracellular Ca^2+ was monitored using a FLIPR Tetra system and assay kits from Molecular Devices following manufacturer instructions. All assays were carried out in HEK-293 cells heterologously and stably expressing each of the eight human recombinant prostanoid receptors. […]

[
  {
    "compound": "CC1(C)C(=O)[C@H](C/C=C\\CCCC(=O)O)[C@@H](/C=C/[C@H](O)CCc2sc3ccccc3c2Cl)[C@@H]1O [Compound I]",
    "EC50, nM": 0.11
  }
]
